# System: HaCaT
# Experiment Summary: Anti-inflammatory activity in human HaCaT cells assessed as inhibition of LPS-induced occluding expression at 25 uM after 24 hrs by FACS analysis (rvb = 30.17 +/- 5.98)
# Assay type: functional

{"columns": ["Molecule", "Flu intensity"],
 "data": [
  ["CO[C@@H]1C[C@]2(CC[C@@]3(O2)[C@H](C)C(=O)C[C@H]2C(C)(C)[C@H](O)CC[C@@]23C)CO1", 18.59],
  ["CC(=O)OC[C@@]1(C)[C@H](O)CC[C@]2(C)C(CCc3ccoc3)=C(C)C(=O)C[C@@H]12", 19.18],
  ["COC1C=C(CCC2=C(C)C(=O)C[C@H]3C(C)(C)[C@H](O)CC[C@]23C)C(=O)O1 (stereo partly specified)", 22.64],
  ["CO[C@H]1C[C@]2(CC[C@@]3(O2)[C@H](C)C(=O)[C@@H](O)[C@H]2C(C)(C)[C@H](O)CC[C@@]23C)CO1", 23.48],
  ["CC(=O)O[C@@H]1CC[C@@]2(C)[C@@H](C(=O)[C@H](O)[C@@H](C)[C@]2(O)CCc2ccoc2)C1(C)C", 16.06],
  ["CC(=O)OC[C@@]1(C)[C@H](O)CC[C@]2(C)C(CCC3=CC(O)OC3=O)=C(C)C(=O)C[C@@H]12 (stereo partly specified)", 21.77]
]}

* * *

This listing pairs compounds with measured inhibition at 12.5 µM.
# Tested on: HaCaT
# Experiment Summary: Anti-inflammatory activity in human HaCaT cells assessed as inhibition of LPS-induced nitrotyrosine production at 12.5 uM after 24 hrs by FACS analysis relative to LPS alone
# Assay type: functional
Property Label: inhibition at 12.5 µM (%)

{"columns": ["Compound", "Property Label", "Measured Value"],
 "data": [
  ["CC(=O)O[C@@H]1CC[C@@]2(C)[C@@H](C(=O)[C@H](O)[C@@H](C)[C@]2(O)CCc2ccoc2)C1(C)C", "inhibition at 12.5 µM", 9],
  ["C[C@@H]1C(=O)C[C@H]2C(C)(C)[C@H](O)CC[C@]2(C)[C@@]1(O)CCc1ccoc1", "inhibition at 12.5 µM", 6.33],
  ["CO[C@H]1C[C@]2(CC[C@@]3(O2)[C@H](C)C(=O)[C@@H](O)[C@H]2C(C)(C)[C@H](O)CC[C@@]23C)CO1", "inhibition at 12.5 µM", 0],
  ["CC1=C(CCc2ccoc2)[C@@]2(C)CC[C@@H](O)C(C)(C)[C@@H]2[C@H](O)C1=O", "inhibition at 12.5 µM", 5],
  ["COC1C=C(CCC2=C(C)C(=O)C[C@H]3C(C)(C)[C@H](O)CC[C@]23C)C(=O)O1 (stereo not given in full)", "inhibition at 12.5 µM", 0.5],
  ["CO[C@@H]1C[C@@]2(CC[C@@]3(O2)[C@H](C)C(=O)C[C@H]2C(C)(C)[C@H](O)CC[C@@]23C)C(=O)O1", "inhibition at 12.5 µM", 14.3],
  ["CO[C@@H]1C[C@]2(CC[C@@]3(O2)[C@H](C)C(=O)C[C@H]2C(C)(C)[C@H](O)CC[C@@]23C)CO1", "inhibition at 12.5 µM", 0],
  ["CC(=O)OC[C@@]1(C)[C@H](O)CC[C@]2(C)C(CCc3ccoc3)=C(C)C(=O)C[C@@H]12", "inhibition at 12.5 µM", 0],
  ["CC(=O)OC[C@@]1(C)[C@H](O)CC[C@]2(C)C(CCC3=CC(O)OC3=O)=C(C)C(=O)C[C@@H]12 (stereo not given in full)", "inhibition at 12.5 µM", 3.67],
  ["CC1=C(CCC2=CC(O)OC2=O)[C@@]2(C)CC[C@@H](O)C(C)(C)[C@@H]2CC1=O (stereo not given in full)", "inhibition at 12.5 µM", 30]
]}
